TEST_METHOD_NOTES: Metabolite analysis in plasma, liver, and kidney (TLC)
Format: in vivo, Crl:CD1(ICR) mice
CONDITION_SUMMARY: female, Crl:CD1(ICR), mouse, in vivo, Female; 2 h after [^14C]Epyrifenacil 1 mg/kg p.o. + Rifampicin 200 mg/kg p.o.; read-out: Metabolite concentration, Kidney
OBSERVABLE: concentration at 2 h (ng/g)

[[record]]
compound = "CN1C(=O)N(c2cc(Oc3cccnc3OCC(=O)O)c(Cl)cc2F)C(=O)CC1(O)C(F)(F)F (stereo not shown)"
observable = "concentration at 2 h"
result_unit = "ng/g"
observed = 15


---

TEST_METHOD_NOTES: Metabolite analysis in plasma, liver, and kidney (TLC)
Type: in vivo, Crl:CD1(ICR) mice
CONDITION_SUMMARY: male, Crl:CD1(ICR), mouse, in vivo, Male; 2 h after [^14C]Epyrifenacil 1 mg/kg p.o. + Rifampicin 200 mg/kg p.o.; read-out: Metabolite concentration, Kidney
OBSERVABLE: concentration at 2 h (ng/g)

[[record]]
compound = "CN1C(=O)N(c2cc(Oc3cccnc3OCC(=O)O)c(Cl)cc2F)C(=O)CC1(O)C(F)(F)F (stereo not shown)"
observable = "concentration at 2 h"
observed = 22


---

TEST_METHOD_NOTES: Metabolite analysis in plasma, liver, and kidney (TLC)
Type: in vivo, Crl:CD1(ICR) mice
CONDITION_SUMMARY: male, Crl:CD1(ICR), mouse, in vivo, Male; 2 h after [^14C]Epyrifenacil 1 mg/kg p.o. + Rifampicin 200 mg/kg p.o.; read-out: Metabolite concentration, Liver
OBSERVABLE: concentration at 2 h (ng/g)

[[record]]
molecule = "CN1C(=O)N(c2cc(Oc3cccnc3OCC(=O)O)c(Cl)cc2F)C(=O)CC1(O)C(F)(F)F (stereo not shown)"
observed = 172


---

TEST_METHOD_NOTES: Metabolite analysis in plasma, liver, and kidney (TLC)
Assay type: in vivo, Crl:CD1(ICR) mice
CONDITION_SUMMARY: female, Crl:CD1(ICR), mouse, in vivo, Female; 2 h after [^14C]Epyrifenacil 1 mg/kg p.o. + Digoxin 200 mg/kg p.o.; read-out: Metabolite concentration, Kidney
OBSERVABLE: concentration at 2 h (ng/g)

[[record]]
compound = "CN1C(=O)N(c2cc(Oc3cccnc3OCC(=O)O)c(Cl)cc2F)C(=O)CC1(O)C(F)(F)F (stereo not shown) [M4]"
observed = 7


---

TEST_METHOD_NOTES: Metabolite analysis in plasma, liver, and kidney (TLC)
Type: in vivo, Crl:CD1(ICR) mice
CONDITION_SUMMARY: Crl:CD1(ICR), mouse, plasma, oral, with rifampicin (OATP inhibitor) 200 mg/kg p.o.; Male; 2 h after [^14C]Epyrifenacil 1 mg/kg p.o. + Rifampicin 200 mg/kg p.o.; read-out: Metabolite concentration, Plasma
OBSERVABLE: concentration at 2 h (ng/g)

[[record]]
cpd_smiles = "CNC(=O)Nc1cc(Oc2cccnc2OCC(=O)O)c(Cl)cc1F"
observable = "concentration at 2 h"
result_unit = "ng/g"
observed = 35

[[record]]
cpd_smiles = "Cn1c(C(F)(F)F)cc(=O)n(-c2cc(Oc3cccnc3OCC(=O)O)c(Cl)cc2F)c1=O"
observable = "concentration at 2 h"
result_unit = "ng/g"
observed = 76


---

TEST_METHOD_NOTES: Metabolite analysis in plasma, liver, and kidney (TLC)
Type: in vivo, Crl:CD1(ICR) mice
CONDITION_SUMMARY: Crl:CD1(ICR), mouse, liver, oral; Female; 2 h after [^14C]Epyrifenacil 1 mg/kg p.o.; read-out: Metabolite concentration, Liver
Known concentration at 2 h of a selection of molecules
OBSERVABLE: concentration at 2 h (ng/g)

[[record]]
cpd_smiles = "CNC(=O)Nc1cc(Oc2cccnc2OCC(=O)O)c(Cl)cc1F"
observed = 11

[[record]]
cpd_smiles = "Cn1c(C(F)(F)F)cc(=O)n(-c2cc(Oc3cccnc3OCC(=O)O)c(Cl)cc2F)c1=O"
observed = 3520

[[record]]
cpd_smiles = "Cn1c(C(F)(F)F)cc(=O)n(-c2cc(Oc3ccc[nH]c3=O)c(Cl)cc2F)c1=O"
observed = 6


---

TEST_METHOD_NOTES: Metabolite analysis in plasma, liver, and kidney (TLC)
Type: in vivo, Crl:CD1(ICR) mice
CONDITION_SUMMARY: male, Crl:CD1(ICR), mouse, in vivo, Male; 2 h after [^14C]Epyrifenacil 1 mg/kg p.o. + Rifampicin 200 mg/kg p.o.; read-out: Metabolite concentration, Plasma
OBSERVABLE: concentration at 2 h

[[record]]
molecule = "CN1C(=O)N(c2cc(Oc3cccnc3OCC(=O)O)c(Cl)cc2F)C(=O)CC1(O)C(F)(F)F (stereo not shown) [M4]"
observable = "concentration at 2 h"
observed = "4 ng/g"


---

TEST_METHOD_NOTES: Metabolite analysis in plasma, liver, and kidney (TLC)
Assay type: in vivo, Crl:CD1(ICR) mice
CONDITION_SUMMARY: female, Crl:CD1(ICR), mouse, liver and plasma, oral, females; 2 h; DGX co‐administrated (oral or intraperitoneal); read-out: Liver/plasma ratio of S‐3100‐CA
OBSERVABLE: Kp at 2 h

[[record]]
compound = "Cn1c(C(F)(F)F)cc(=O)n(-c2cc(Oc3cccnc3OCC(=O)O)c(Cl)cc2F)c1=O [S‐3100‐CA]"
observable = "Kp at 2 h"
observed = "50 to 56"


---

TEST_METHOD_NOTES: Metabolite analysis in plasma, liver, and kidney (TLC)
Type: in vivo, Crl:CD1(ICR) mice
CONDITION_SUMMARY: male, Crl:CD1(ICR), mouse, in vivo, 1 mg/kg, Male; 2 h after [^14C]Epyrifenacil 1 mg/kg p.o.; read-out: Metabolite concentration, Kidney
OBSERVABLE: concentration at 2 h (ng/g)

[[record]]
compound = "CN1C(=O)N(c2cc(Oc3cccnc3OCC(=O)O)c(Cl)cc2F)C(=O)CC1(O)C(F)(F)F (stereo not shown)"
observed = 9


---

TEST_METHOD_NOTES: Metabolite analysis in plasma, liver, and kidney (TLC)
Assay type: in vivo, Crl:CD1(ICR) mice
CONDITION_SUMMARY: male, Crl:CD1(ICR), mouse, liver and plasma, oral, males; 2 h; RIF co‐administrated; read-out: Liver/plasma ratio of S‐3100‐CA
Excerpt: Precoated silica gel 60 F254 chromatoplate (20 × 20 cm, 0.25‐ or 0.5‐mm layer thickness, Merck KGaA) was used for two‐dimensional thin layer chromatography (2D‐TLC) analysis. The solvent systems were ethyl formate/formic acid (95/5, v/v) for the first dimension, and ethyl acetate/acetic acid (95/5, v/v) for the second dimension. The radioactivity on the TLC plates was detected by autoradiography using an imaging plate processed with a fluoro‐image analyzer (FLA‐9500, GE Healthcare). […]
OBSERVABLE: Kp at 2 h

[[record]]
cpd_smiles = "Cn1c(C(F)(F)F)cc(=O)n(-c2cc(Oc3cccnc3OCC(=O)O)c(Cl)cc2F)c1=O"
observable = "Kp at 2 h"
observed = 18


---

TARGET_OR_TEST_SYSTEM: mouse Oatp1a1 (Mus musculus)
Sequence (Q9QXZ6 whole entry): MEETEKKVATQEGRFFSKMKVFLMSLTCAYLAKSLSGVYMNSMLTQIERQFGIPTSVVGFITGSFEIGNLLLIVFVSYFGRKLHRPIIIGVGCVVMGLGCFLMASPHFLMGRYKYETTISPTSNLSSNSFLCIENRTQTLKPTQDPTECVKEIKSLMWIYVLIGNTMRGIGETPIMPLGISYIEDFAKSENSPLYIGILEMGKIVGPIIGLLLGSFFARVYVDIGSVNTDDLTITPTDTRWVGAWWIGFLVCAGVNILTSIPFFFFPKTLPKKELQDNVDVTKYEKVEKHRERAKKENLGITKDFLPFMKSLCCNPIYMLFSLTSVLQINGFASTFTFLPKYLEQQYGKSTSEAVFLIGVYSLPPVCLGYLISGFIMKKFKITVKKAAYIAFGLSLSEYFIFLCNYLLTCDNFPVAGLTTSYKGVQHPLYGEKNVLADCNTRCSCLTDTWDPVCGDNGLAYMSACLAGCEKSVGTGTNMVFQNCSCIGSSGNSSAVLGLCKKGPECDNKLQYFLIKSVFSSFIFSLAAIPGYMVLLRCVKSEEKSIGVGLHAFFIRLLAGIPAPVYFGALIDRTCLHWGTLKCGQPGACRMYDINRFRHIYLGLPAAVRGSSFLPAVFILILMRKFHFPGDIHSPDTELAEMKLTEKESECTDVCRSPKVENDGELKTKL
TEST_METHOD_NOTES: in vitro
CONDITION_SUMMARY: 293FT cells transiently transfected with mouse Oatp1a1, probe radiolabeled S‐3100‐CA
OBSERVABLE: inhibition at 10 min, 10 µM

[[record]]
molecule = "CO[C@H]1/C=C/O[C@@]2(C)Oc3c(C)c(O)c4c(O)c(cc(O)c4c3C2=O)NC(=O)/C(C)=C\\C=C\\[C@H](C)[C@H](O)[C@@H](C)[C@@H](O)[C@@H](C)[C@H](OC(C)=O)[C@@H]1C [RSV, rifamycin SV]"
observed = "> 50%"

[[record]]
molecule = "CO[C@H]1/C=C/O[C@@]2(C)Oc3c(C)c(O)c4c(O)c(c(/C=N/N5CCN(C)CC5)c(O)c4c3C2=O)NC(=O)/C(C)=C\\C=C\\[C@H](C)[C@H](O)[C@@H](C)[C@@H](O)[C@@H](C)[C@H](OC(C)=O)[C@@H]1C [RIF, Rifampicin]"
observed = "> 50%"


---

TEST_METHOD_NOTES: Metabolite analysis in plasma, liver, and kidney (TLC)
Type: in vivo, Crl:CD1(ICR) mice
CONDITION_SUMMARY: male, Crl:CD1(ICR), mouse, in vivo, Male; 2 h after [^14C]Epyrifenacil 1 mg/kg p.o. + Digoxin 100 mg/kg i.p.; read-out: Metabolite concentration, Liver
OBSERVABLE: concentration at 2 h (ng/g)

[[record]]
molecule = "CN1C(=O)N(c2cc(Oc3cccnc3OCC(=O)O)c(Cl)cc2F)C(=O)CC1(O)C(F)(F)F (stereo not shown)"
observed = 651

